tested on: T-47D breast; assay: NCI tumour cell line growth inhibition, 48 h
outcome_measure: TGI

{"compound": "O=C1Nc2ccc(O)cc2/C1=C\\c1ccncc1", "outcome_measure": "TGI", "result": "> 100 µM"}
{"compound": "Cc1c2oc3c(C)cnc(C(=O)NC4C(=O)NC(C(C)C)C(=O)N5CCCC5C(=O)N(C)CC(=O)N(C)C(C(C)C)C(=O)OC4C)c3nc-2c(C(=O)NC2C(=O)NC(C(C)C)C(=O)N3CCCC3C(=O)N(C)CC(=O)N(C)C(C(C)C)C(=O)OC2C)c(N)c1=O (stereo unspecified)", "outcome_measure": "TGI", "result": "> 53.4 µM"}
{"compound": "O=C(O)c1ccc(NCc2nc3ccccc3[nH]2)cc1", "outcome_measure": "TGI", "result": "> 100 µM"}
{"compound": "COC1=CC(=O)c2c(c(COC(C)=O)cn2C)C1=O", "outcome_measure": "TGI", "result": "3.67 µM"}
{"compound": "COc1ccc2nc3c(C)cc4ccccc4n3c2c1", "outcome_measure": "TGI", "result": "> 100 µM"}
{"compound": "CC1(C)CCCC2CC2CCC(C)(C)C1=O (stereo unspecified)", "outcome_measure": "TGI", "result": "> 100 µM"}
{"compound": "Cc1cncc(-c2nc(NCCc3c[nH]c4ccccc34)c3ncn(C(C)C)c3n2)c1", "outcome_measure": "TGI", "result": "19.6 µM"}
{"compound": "O=C(/C=C\\c1ccsc1)c1ccccc1", "outcome_measure": "TGI", "result": "19.7 µM"}
{"compound": "Fc1ccc(Nc2ncc(-c3cc(F)c(Cl)cc3Cl)s2)cc1Cl", "outcome_measure": "TGI", "result": "> 100 µM"}
{"compound": "Cc1ccc(N=NN(C)C(C)C(O)Cc2ccccc2)cc1 (stereo unspecified)", "outcome_measure": "TGI", "result": "88.5 µM"}
{"compound": "Nc1c(C(=O)c2ccc(C#CCN3CCOCC3)cc2)cnn1-c1ccc(F)cc1", "outcome_measure": "TGI", "result": "> 25 µM"}

----------
system: MDA-MB-435; experiment: NCI tumour cell line growth inhibition, 48 h
Below, each of the compounds is paired with its reported TGI value.

{"compound": "Clc1ccc(OCc2nnc3sc(SSc4nn5c(COc6ccc(Cl)cc6)nnc5s4)nn23)cc1", "TGI": "> 100 µM"}
{"compound": "COc1cc(N2CCN(C(C)C)CC2)ccc1Nc1nc(Nc2ccc(F)cc2C(=O)NCC(O)CO)c2cc[nH]c2n1 (stereo not given)", "TGI": "> 25 µM"}
{"compound": "CC(C(=O)NCCNC(=O)CCCC(=O)N(C)O)C(=O)NCCNC(=O)CCCC(=O)N(C)O", "TGI": "> 100 µM"}
{"compound": "CCCCCCc1cc2cc(C(=O)NCc3ccccc3)c(=N)oc2cc1O", "TGI": "> 100 µM"}
{"compound": "CCOc1ccc(N2C(=O)NC3(c4ccccc4)N(C)C(=O)N(C)C23c2ccccc2)cc1 (stereo not given)", "TGI": "> 100 µM"}
{"compound": "COC(=O)CN=C1NC(=S)N(Cc2ccc(OC)cc2)C12CCCC2", "TGI": "> 100 µM"}
{"compound": "CC1=NNC(=O)C1C1CC(c2c[nH]c3ccccc23)=NN(c2ccccc2)C1=O (stereo not given)", "TGI": "> 100 µM"}
{"compound": "Nc1nc(=S)c2ncn(C3OC(CO)C(O)C3O)c2[nH]1 (stereo not given)", "TGI": "> 69.6 µM"}
{"compound": "O=c1oc2ccc3ccccc3c2cc1-c1nc(-c2ccc([N+](=O)[O-])cc2)n[nH]1", "TGI": "> 100 µM"}
{"compound": "O=C(NNC(=S)Nc1ccc(Cl)cc1)C12CC3CC(CC(C3)C1)C2", "TGI": "37.8 µM"}
{"compound": "C=C1C(=O)O[C@@H]2C[C@@H]1CC[C@]1(C)O[C@H]1CC/C(C)=C/CC[C@@]2(C)O", "TGI": "41.1 µM"}
{"compound": "CC(C)(C)C(O)CC(O)(C(F)(F)F)C(F)(F)F (stereo not given)", "TGI": "> 100 µM"}
{"compound": "O=C(NC1CCN(Cc2ccccc2)CC1)c1cccc(I)c1", "TGI": "34.9 µM"}
{"compound": "CON=C1C[C@]2(C[C@@H]3C[C@@H](C/C=C(\\C)C[C@@H](C)/C=C/C=C4\\CO[C@@H]5[C@H](O)C(C)=C[C@@H](C(=O)O3)[C@]45O)O2)O[C@H](/C(C)=C/C(C)C)[C@H]1C", "TGI": "21.5 µM"}
{"compound": "Fc1ccc(Nc2ncc(-c3cc(F)c(Cl)cc3Cl)s2)cc1Cl", "TGI": "32.5 µM"}

----------
Below, each of the compounds is paired with its reported TGI value.
tested on: SN12C renal; assay: NCI tumour cell line growth inhibition, 48 h

{"compound": "CCC[CH2][Sn]1([CH2]CCC)[O]C(=O)CN=C(C)c2ccccc2[O]1", "result_modifier": "=", "TGI / µM": 2.34}
{"compound": "Cc1cc(N(CCC#N)CCC#N)ccc1/C=C1N=C(/C=C/c2ccccc2)N(c2ccc(S(N)(=O)=O)cc2)C\\1=O", "result_modifier": ">", "TGI / µM": 100}
{"compound": "Cc1cncc(-c2nc(NCCc3c[nH]c4ccccc34)c3ncn(C(C)C)c3n2)c1", "result_modifier": "=", "TGI / µM": 32.4}
{"compound": "Cc1ccc2nc(Sc3c([N+](=O)[O-])ncn3C)[nH]c2c1", "result_modifier": "=", "TGI / µM": 35.8}
{"compound": "Cc1n[nH]c(=O)n1Nc1ccccc1", "result_modifier": ">", "TGI / µM": 100}
{"compound": "COC(O)C(=O)c1c2c(cc3c1CCC3)CCC2 (stereo not given)", "result_modifier": ">", "TGI / µM": 100}
{"compound": "Cc1ccccc1C=NC12CC3CC(CC(C3)C1)C2", "result_modifier": ">", "TGI / µM": 100}
{"compound": "CC(C)COC(=O)c1ccc(N=Cc2ccc(C=Nc3ccc(C(=O)OCC(C)C)cc3)cc2)cc1", "result_modifier": ">", "TGI / µM": 100}
{"compound": "COc1ccc(/C(=C/c2ccc3ccccc3c2)c2nn[nH]n2)cc1OC", "result_modifier": ">", "TGI / µM": 100}
{"compound": "COC(=O)[C@H](C)NC(=O)C1(CNC(=O)[C@H](C)NC(=O)OC(C)(C)C)Cc2ccccc2-c2ccccc2C1", "result_modifier": "=", "TGI / µM": 34.6}

----------
tested on: CCRF-CEM leukemia; test: NCI tumour cell line growth inhibition, 48 h; in the data active means GI50 below about 0.43 µM; inactive means the rest
Classes used: yes = active, no = inactive

{"compound": "O=C(CN1CCN(CCN2C(=O)c3cccc4cccc(c34)C2=O)CC1)Nc1ccc2ncsc2c1", "cat": "no"}
{"compound": "C[C@]12CCCN1CC1=NNC(=O)c3cc(F)cc4[nH]c2c1c34", "cat": "no"}
{"compound": "CS(=O)(=O)c1ccc2c(c1)C(=O)c1c-2n(CCCBr)c(=O)c2cc([N+](=O)[O-])ccc12", "cat": "no"}
{"compound": "COc1ccc(N=N/C(=N\\NC(=O)c2cc(Br)ccc2O)c2ccc(N(CCC#N)CCC#N)cc2OC)cc1", "cat": "no"}
{"compound": "COc1ccc(CN2C(=O)/C(=C\\C(=O)c3ccc(OCCN4CCCC4)cc3)c3ccccc32)cc1", "cat": "no"}
{"compound": "COc1ccc(/C(=C/c2ccc3ccccc3c2)c2nn[nH]n2)cc1OC", "cat": "no"}
{"compound": "O=c1c2ccccc2nc2n1CCc1c-2[nH]c2cc3c(cc12)OCO3", "cat": "no"}
{"compound": "Nc1c(C(=O)c2ccc(C#CCN3CCOCC3)cc2)cnn1-c1ccc(F)cc1", "cat": "no"}
{"compound": "COc1cc(-c2cc(-c3cccs3)c(C#N)c(N3CCOCC3)n2)cc(OC)c1OC", "cat": "no"}
{"compound": "Cc1cc(O[C@@H]2O[C@@H](C)[C@H](O)[C@@H](O)[C@H]2O)c2c3c(c(O[C@@H]4O[C@@H](C)[C@H](O)[C@@H](O)[C@H]4O)cc2c1)C(=O)c1c(O)cccc1C3=O", "cat": "no"}
{"compound": "CC(C)(C)[Si](C)(C)OC1[C@@H](O[Si](C)(C)C(C)(C)C)[C@@H](CNC(=O)NC(=O)NC(=O)CCl)O[C@H]1n1cnc2c(NC(=O)Nc3ccccc3)ncnc21 (stereo partly specified)", "cat": "yes"}

----------
tested on: A549 NSCLC; assay: NCI tumour cell line growth inhibition, 48 h; in the data active = GI50 below about 0.43 µM; inactive = the rest
Classes used: True (active), False (inactive)

{"compound": "CCNC(=O)Oc1ccc(/C(=C(\\C)c2ccc(Cl)cc2)c2ccc(OCCN(CC)CC)cc2)cc1", "cat": "False"}
{"compound": "CCSc1nc(NC(C)c2ccccc2)c2cnn(CO)c2n1 (configuration not stated)", "cat": "False"}
{"compound": "CCC(CC)c1cc(N[C@H]2CC[C@H](N)C2)n2nccc2n1", "cat": "False"}
{"compound": "CCC1=C[C@@H]2CN(C1)Cc1c([nH]c3ccccc13)[C@@](C(=O)OC)(c1cc3c(cc1OC)N(C)[C@H]1[C@@](O)(C(=O)OC)[C@H](OC(C)=O)[C@]4(CC)C=CCN5CC[C@]31[C@@H]54)C2", "cat": "True"}
{"compound": "Fc1ccc(Nc2ncc(-c3cc(F)c(Cl)cc3Cl)s2)cc1Cl", "cat": "False"}
{"compound": "COc1ccc(C2=NN(C=O)C(c3ccc(OS(=O)(=O)c4ccc(C)cc4)c(OC)c3)C2)cc1 (configuration not stated)", "cat": "False"}
{"compound": "Cc1ccc(S(=O)(=O)OCC(=O)Nc2ccc(C(=O)O)c(O)c2)cc1", "cat": "False"}
